Data origin, for the record: patent EP2975030B1

- Test system: rat small-intestinal brush border membrane vesicles
- Procedure Details: Inhibitory effect on 33PO4 uptake into rat small-intestinal brush border membrane vesicles (rapid filtration method)
- Type: biochemical, Wistar female rat
- Experimental Conditions: 1 µM test compound; 33PO4 uptake into rat small-intestinal BBMVs, 60 seconds
- Method: The ^33PO4 transport activity of the small-intestinal BBMVs was determined by the rapid filtration method. […] Then, ice-cold buffer C (110 mM NaCl, 1 mM KH2PO4, and 10 mM HEPES (pH 7.5)) was added to each reaction mixture, which was immediately suction-filtered through a Millipore filter. The filter was washed with buffer C, and each sample was then dissolved in a liquid scintillator. The amount of ^33PO4 uptake into BBMVs was measured using a liquid scintillation counter. […]
Value Type: Rate of uptake inhibition (%) (1 µM)
In your response, the unit should come after the numeric value.

Request: Quick one: Rate of uptake inhibition (%) (1 µM) of C[C@]12CCCN1N(Cc1c(F)cc(CCCCCCCOC[C@H](O)[C@@H](O)CO)cc1F)C(=O)C(C(=O)Nc1ccc(C(F)(F)F)cc1-c1ccc(C(F)(F)F)nc1)=C2O ?
Response: 76%

Request: Quick one: Rate of uptake inhibition (%) (1 µM) of Cc1c(C#N)ncnc1-c1cc(Cl)ccc1NC(=O)C1=C(O)[C@H](C(C)(C)C)N(C)N(Cc2ccc(OCCN3CCOCC3)c(F)c2F)C1=O ?
Response: 43%

Request: Quick one: Rate of uptake inhibition (%) (1 µM) of C[C@]12CCCN1N(Cc1cccc(F)c1F)C(=O)C(C(=O)Nc1ccc(C(F)(F)F)cc1-c1cc(C#N)ncn1)=C2O ?
Response: 69%

###

- Test system: rat small-intestinal brush border membrane vesicles
- Procedure Details: Inhibitory effect on 33PO4 uptake into rat small-intestinal brush border membrane vesicles (rapid filtration method)
- Format: biochemical, Wistar female rat
- Experimental Conditions: 1 µM test compound; 33PO4 uptake into rat small-intestinal BBMVs, 60 seconds
Label scheme for Rate of uptake inhibition (%) (1 µM): lower than 60% is false, 60% and above is true.

Request: Check the entry CC(C)[C@@H]1C(O)=C(C(=O)Nc2ccc(C(F)(F)F)cc2-c2cc(C(F)(F)F)ncn2)C(=O)N(Cc2cccc(F)c2F)N1C [Example 249] : does Rate of uptake inhibition (%) (1 µM) equal or exceed 60%?
Response: false

Request: Check the entry C[C@]12CCCN1N(Cc1ccc(C#CCCCC(=O)O)c(F)c1F)C(=O)C(C(=O)Nc1ccc(C(F)(F)F)cc1-c1cc(C(F)(F)F)ncn1)=C2O [Example 129] : does Rate of uptake inhibition (%) (1 µM) equal or exceed 60%?
Response: true

Request: Check the entry C[C@]12CCCN1N(Cc1cccc(F)c1F)C(=O)C(C(=O)Nc1ccc(C(F)(F)F)cc1-c1cncc(C#N)c1)=C2O [Example 82] : does Rate of uptake inhibition (%) (1 µM) equal or exceed 60%?
Response: true

Request: Check the entry Cc1cc(NC(=O)C2=C(O)[C@H]3CCCCN3N(Cc3cccc(F)c3)C2=O)c(C(F)(F)F)o1 [Example 15] : does Rate of uptake inhibition (%) (1 µM) equal or exceed 60%?
Response: false

Request: Check the entry CN1N(Cc2cccc(F)c2F)C(=O)C(C(=O)Nc2ccc(C(F)(F)F)cc2-c2ccc(S(=O)(=O)N(C)C)cc2)=C(O)C1(C)C [Example 308] : does Rate of uptake inhibition (%) (1 µM) equal or exceed 60%?
Response: true

Request: Check the entry CN1N(Cc2cccc(F)c2F)C(=O)C(C(=O)Nc2ccc(C(F)(F)F)cc2-c2cc(C(F)(F)F)ncn2)=C(O)C12CCC2 [Example 300] : does Rate of uptake inhibition (%) (1 µM) equal or exceed 60%?
Response: true
